Source of measurements: patent US10647721B2

- Test system: γ-secretase
- PROTOCOL TEXT: Cellular γ-secretase assay (inhibition of Aβ42 secretion, AlphaLisa)
- Format: cell-based
- APPLIED CONDITIONS: human neuroglioma H4 cells overexpressing human APP695 Swedish double mutation, 24 hr compound incubation
Overview of reported EC50 across a group of compounds:
Numeric only. Scale: nM

Consider the worked cases shown below.
What value of measured EC50 is listed for COc1cc(Nc2nc3n(n2)CCCCN3c2ccc(F)c(F)c2)ccc1-c1cnc(C)o1 ?
13.2

What value of measured EC50 is listed for COc1cc(Nc2nc3n(n2)CCCN3c2ccc(F)c(F)c2)ccc1-c1cnn(C)c1 ?
28.9

What value of measured EC50 is listed for Fc1ccc(N2CCCn3nc(Nc4ccc(-n5cnc(Cl)c5)c(F)c4)nc32)cc1F ?
22.5

Kindly consider the entry below.
What value of measured EC50 is listed for COc1cc(Nc2nc3n(n2)CCCN3c2ccc(F)c(F)c2)cnc1-n1cnc(Cl)c1 ?
21.4
